Biological target: hDRD2 (Homo sapiens);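 note: agonist activity at human DRD2 in DRD2-expressing cells, read as intracellular calcium mobilization with a FLIPR Calcium 4 fluorescent dye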
Sequence (P14416 whole entry): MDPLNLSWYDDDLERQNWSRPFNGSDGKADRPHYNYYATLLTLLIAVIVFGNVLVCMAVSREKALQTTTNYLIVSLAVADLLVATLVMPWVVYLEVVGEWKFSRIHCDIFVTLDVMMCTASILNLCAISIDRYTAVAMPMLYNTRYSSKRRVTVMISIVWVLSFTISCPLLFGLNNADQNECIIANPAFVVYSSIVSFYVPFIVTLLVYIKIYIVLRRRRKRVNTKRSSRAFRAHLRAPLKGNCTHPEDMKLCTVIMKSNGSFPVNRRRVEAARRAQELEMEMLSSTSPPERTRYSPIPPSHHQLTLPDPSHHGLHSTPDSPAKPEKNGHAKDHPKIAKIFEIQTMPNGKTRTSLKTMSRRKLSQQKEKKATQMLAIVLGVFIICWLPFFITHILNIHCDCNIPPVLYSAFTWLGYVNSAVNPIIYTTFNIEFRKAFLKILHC
Experiment: cell-based
Set-up: host or cells: 'Cells expressing hDRD2'
Details: read-out: hDRD2 %Emax ± SEM
Below, each entry is listed with its recorded Emax.
// note: answer is a bare numeric in %

Here's what some known entries look like.
>>> recorded_measurement("C[C@@H](O)[C@@H]1NC(=O)[C@H](CCCCN)NC(=O)[C@@H](Cc2c[nH]c3ccccc23)NC(=O)[C@H](Cc2ccccc2)NC(=O)[C@H](Cc2ccccc2)NC(=O)[C@H](CCCNC(=N)N)NC(=O)[C@H](NCCSC[C@@H]2C[C@@H]3c4cccc5[nH]cc(c45)C[C@H]3N(C)C2)CCCCNC(=O)[C@H](Cc2c(F)c(F)c(F)c(F)c2F)NC1=O")
54.1
>>> recorded_measurement("C[C@@H](O)[C@@H]1NC(=O)[C@H](CCCCN)NC(=O)[C@@H](Cc2c[nH]c3ccccc23)NC(=O)[C@H](Cc2ccccc2)NC(=O)[C@H](Cc2ccccc2)NC(=O)[C@H](CCCNC(=N)N)NC(=O)[C@H](NCCCC[C@@H]2C[C@@H]3c4cccc5[nH]cc(c45)C[C@H]3N(C)C2)CCCCNC(=O)[C@H](Cc2ccc(F)cc2)NC1=O")
84

Could you now look at the following compound, please?
In: Give its Emax value. Item: C[C@@H](O)[C@@H]1NC(=O)[C@H](CCCCN)NC(=O)[C@@H](Cc2c[nH]c3ccccc23)NC(=O)[C@H](Cc2cccnc2)NC(=O)[C@H](Cc2ccccc2)NC(=O)[C@H](CCCNC(=N)N)NC(=O)[C@H](NC[C@H](Cc2ccc(O)cc2)NC(=O)CSC[C@@H]2C[C@@H]3c4cccc5[nH]cc(c45)C[C@H]3N(C)C2)CCCCNC(=O)[C@H](Cc2ccccc2)NC1=O
Out: 97.5
